# assayedSystem: Recombinant human Met (c-Met) (Homo sapiens)
# Construct: purchased Invitrogen PV3143
# procedureSummary: Inhibition of c-Met kinase activity using Transcreener FP assay
# Assay type: biochemical
# protocolConditions: Poly E4Y substrate, 28° C. 45 min, read-out: IC50, inhibition of c-Met kinase activity
pIC50: −log10 of the molar value.
readout: pIC50

// known answers, use as guide
{"moleculeSmiles": "COCCNc1cc(-c2ccc3nnn(Cc4ccc5ncccc5c4)c3n2)ccn1", "assayedSystem": "Recombinant human Met (c-Met) (Homo sapiens)", "valueObserved": "6.00 to 7.00"}
{"moleculeSmiles": "COc1cccnc1Nc1cnc2nnn(Cc3ccc4ncccc4c3)c2n1", "assayedSystem": "Recombinant human Met (c-Met) (Homo sapiens)", "valueObserved": "7.00 to 9.00"}
{"moleculeSmiles": "COCCNc1ccc(-c2ccc3nnn(Cc4ccc5ncccc5c4)c3n2)cn1", "assayedSystem": "Recombinant human Met (c-Met) (Homo sapiens)", "valueObserved": "7.00 to 9.00"}
{"moleculeSmiles": "c1cnc2ccc(Cn3nnc4ncc(Nc5ccsc5)nc43)cc2c1", "assayedSystem": "Recombinant human Met (c-Met) (Homo sapiens)", "valueObserved": "7.00 to 9.00"}
{"moleculeSmiles": "OCCn1cc(-c2cnc3nnn(Cc4ccc5ncnn5c4)c3n2)cn1", "assayedSystem": "Recombinant human Met (c-Met) (Homo sapiens)", "valueObserved": "7.00 to 9.00"}
{"moleculeSmiles": "CCn1cc(-c2cnc3nnn(Cc4cc5c(cnn5CC)s4)c3n2)cn1", "assayedSystem": "Recombinant human Met (c-Met) (Homo sapiens)", "valueObserved": "6.00 to 7.00"}
{"moleculeSmiles": "C[C@H](c1ccc2ncccc2c1)n1nnc2ccc(-c3cnn(CCO)c3)nc21", "assayedSystem": "Recombinant human Met (c-Met) (Homo sapiens)", "valueObserved": "6.00 to 7.00"}
{"moleculeSmiles": "OC1(CNc2ccc3nnn(Cc4ccc5ncccc5c4)c3n2)CCCCC1", "assayedSystem": "Recombinant human Met (c-Met) (Homo sapiens)", "valueObserved": "6.00 to 7.00"}

The compound identified as c1cncc(Nc2cnc3nnn(Cc4ccc5ncccc5c4)c3n2)c1 registered its pIC50 at 7.00 to 9.00

###

# assayedSystem: Recombinant human Met (c-Met) (Homo sapiens, UniProt P08581)
# Construct: purchased Invitrogen PV3143
# Sequence (P08581 956-1390 limits assumed): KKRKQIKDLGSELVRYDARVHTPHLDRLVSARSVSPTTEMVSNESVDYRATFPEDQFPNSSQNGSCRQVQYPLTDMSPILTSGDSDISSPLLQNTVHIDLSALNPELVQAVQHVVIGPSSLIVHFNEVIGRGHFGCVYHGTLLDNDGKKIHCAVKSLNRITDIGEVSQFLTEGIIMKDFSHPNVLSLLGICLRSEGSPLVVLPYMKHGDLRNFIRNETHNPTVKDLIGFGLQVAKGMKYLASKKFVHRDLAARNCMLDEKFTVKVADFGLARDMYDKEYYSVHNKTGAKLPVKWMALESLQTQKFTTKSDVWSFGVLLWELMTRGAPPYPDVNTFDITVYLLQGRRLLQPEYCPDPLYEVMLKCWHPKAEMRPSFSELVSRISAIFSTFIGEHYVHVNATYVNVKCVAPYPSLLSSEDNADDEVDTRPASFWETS
# procedureSummary: Inhibition of c-Met kinase activity using Transcreener FP assay
# Assay type: biochemical
# protocolConditions: Poly E4Y substrate, 28° C. 45 min, read-out: IC50, inhibition of c-Met kinase activity
pIC50: −log10 of the molar value.
readout: pIC50

// known answers, use as guide
{"compound": "c1cnc2ccc(Cn3nnc4ccc(Nc5ccncc5)nc43)cc2c1", "assayedSystem": "Recombinant human Met (c-Met) (Homo sapiens, UniProt P08581)", "readout": "pIC50", "valueObserved": "6.00 to 7.00"}
{"compound": "COc1cccc(-c2ccc3nnn(Cc4ccc5ncccc5c4)c3n2)c1", "assayedSystem": "Recombinant human Met (c-Met) (Homo sapiens, UniProt P08581)", "readout": "pIC50", "valueObserved": "7.00 to 9.00"}
{"compound": "OCCOc1ccnc(Nc2cnc3nnn(Cc4ccc5ncccc5c4)c3n2)c1", "assayedSystem": "Recombinant human Met (c-Met) (Homo sapiens, UniProt P08581)", "readout": "pIC50", "valueObserved": "6.00 to 7.00"}
{"compound": "OCc1ccc(-c2ccc3nnn(Cc4ccc5ncccc5c4)c3n2)s1", "assayedSystem": "Recombinant human Met (c-Met) (Homo sapiens, UniProt P08581)", "readout": "pIC50", "valueObserved": "7.00 to 9.00"}
{"compound": "CC(=O)Nc1ccc(-c2ccc3nnn(Cc4c[nH]c5ncccc45)c3n2)cn1", "assayedSystem": "Recombinant human Met (c-Met) (Homo sapiens, UniProt P08581)", "readout": "pIC50", "valueObserved": "7.00 to 9.00"}
{"compound": "Cn1cc(-c2ccc3nnn(Cc4ccc5ncsc5c4)c3n2)cn1", "assayedSystem": "Recombinant human Met (c-Met) (Homo sapiens, UniProt P08581)", "readout": "pIC50", "valueObserved": "7.00 to 9.00"}
{"compound": "Cc1cc(Nc2cnc3nnn(Cc4ccc5ncccc5c4)c3n2)n[nH]1", "assayedSystem": "Recombinant human Met (c-Met) (Homo sapiens, UniProt P08581)", "readout": "pIC50", "valueObserved": "7.00 to 9.00"}
{"compound": "Cc1coc(Nc2cnc3nnn(Cc4ccc5ncccc5c4)c3n2)n1", "assayedSystem": "Recombinant human Met (c-Met) (Homo sapiens, UniProt P08581)", "readout": "pIC50", "valueObserved": "7.00 to 9.00"}
{"compound": "N#CCn1cc(-c2ccc3nnn(Cc4ccc5ncccc5c4)c3n2)cn1", "assayedSystem": "Recombinant human Met (c-Met) (Homo sapiens, UniProt P08581)", "readout": "pIC50", "valueObserved": "7.00 to 9.00"}
{"compound": "Cc1ccc(-c2ccc3nnn(Cc4ccc5ncccc5c4)c3n2)cn1", "assayedSystem": "Recombinant human Met (c-Met) (Homo sapiens, UniProt P08581)", "readout": "pIC50", "valueObserved": "6.00 to 7.00"}

The compound identified as COCCOc1ccc(-c2ccc3nnn(Cc4ccc5ncccc5c4)c3n2)cn1 registered its pIC50 at 6.00 to 7.00

The compound identified as COc1cccc(Nc2cnc3nnn(Cc4ccc5ncccc5c4)c3n2)n1 registered its pIC50 at 7.00 to 9.00

The compound identified as CC(c1cc2cnccc2s1)n1nnc2ncc(-c3cnn(CCO)c3)nc21 (stereo not drawn) registered its pIC50 at 7.00 to 9.00

The compound identified as Cn1cc(-c2ccc3nnn(Cc4cc5cnccc5s4)c3n2)cn1 registered its pIC50 at 6.00 to 7.00

The compound identified as c1nc2ccc(Cn3nnc4ncc(-c5cnn(C6CNC6)c5)nc43)cn2n1 registered its pIC50 at 6.00 to 7.00

The compound identified as COCCn1cc(-c2cnc3nnn(Cc4cc5[nH]ncc5s4)c3n2)cn1 registered its pIC50 at 7.00 to 9.00

The compound identified as OCCn1cnc(-c2ccc3nnn(Cc4ccc5ncccc5c4)c3n2)c1 registered its pIC50 at 6.00 to 7.00

The compound identified as COc1cc(Nc2ccc3nnn(Cc4ccc5ncccc5c4)c3n2)ccn1 registered its pIC50 at 7.00 to 9.00

The compound identified as c1cn2cc(Cn3nnc4ncc(-c5cnn(C6CNC6)c5)nc43)ccc2n1 registered its pIC50 at 7.00 to 9.00

The compound identified as Brc1cnc2nnn(Cc3ccc4ncnn4c3)c2n1 registered its pIC50 at 6.00 to 7.00

The compound identified as Cc1cc(Nc2ccc3nnn(Cc4ccc5ncccc5c4)c3n2)ccn1 registered its pIC50 at 7.00 to 9.00

The compound identified as OCCn1cc(-c2ccc3nnn(Cc4ccc5ncccc5c4F)c3n2)cn1 registered its pIC50 at 7.00 to 9.00

###

Recorded measurements of pIC50, one per entry
# assayedSystem: Recombinant human Met (c-Met) (Homo sapiens, UniProt P08581)
# Construct: purchased Invitrogen PV3143
# procedureSummary: Inhibition of c-Met kinase activity using Transcreener FP assay
# Assay type: biochemical
# protocolConditions: Poly E4Y substrate, 28° C. 45 min, read-out: IC50, inhibition of c-Met kinase activity
pIC50: −log10 of the molar value.

// known answers, use as guide
{"compound": "OCCn1cc(-c2ccc3nnn(Cc4ccc5ncnn5c4)c3n2)cn1", "assayedSystem": "Recombinant human Met (c-Met) (Homo sapiens, UniProt P08581)", "pIC50": "6.00 to 7.00"}
{"compound": "c1ccc(Nc2cnc3nnn(Cc4ccc5ncccc5c4)c3n2)nc1", "assayedSystem": "Recombinant human Met (c-Met) (Homo sapiens, UniProt P08581)", "pIC50": "7.00 to 9.00"}
{"compound": "c1cnc2ccc(Cn3nnc4ccc(NC5CCOCC5)nc43)cc2c1", "assayedSystem": "Recombinant human Met (c-Met) (Homo sapiens, UniProt P08581)", "pIC50": "7.00 to 9.00"}
{"compound": "COCc1cnn2ccc(Cn3nnc4ncc(-c5cnn(CCO)c5)nc43)cc12", "assayedSystem": "Recombinant human Met (c-Met) (Homo sapiens, UniProt P08581)", "pIC50": "7.00 to 9.00"}
{"compound": "CC(c1ccc2nccn2c1)n1nnc2ncc(-c3cn[nH]c3)nc21 (stereo not drawn)", "assayedSystem": "Recombinant human Met (c-Met) (Homo sapiens, UniProt P08581)", "pIC50": "7.00 to 9.00"}
{"compound": "OCCOc1cc(Nc2cnc3nnn(Cc4ccc5ncccc5c4)c3n2)ccn1", "assayedSystem": "Recombinant human Met (c-Met) (Homo sapiens, UniProt P08581)", "pIC50": "7.00 to 9.00"}
{"compound": "c1nn(C2CNC2)cc1-c1cnc2nnn(Cc3cc4[nH]ncc4s3)c2n1", "assayedSystem": "Recombinant human Met (c-Met) (Homo sapiens, UniProt P08581)", "pIC50": "7.00 to 9.00"}
{"compound": "O=C(Cn1cc(-c2cnc3nnn(Cc4ccc5ncsc5c4)c3n2)cn1)NC1CC1", "assayedSystem": "Recombinant human Met (c-Met) (Homo sapiens, UniProt P08581)", "pIC50": "7.00 to 9.00"}
{"compound": "CN(C)Cc1ccc(-c2ccc3nnn(Cc4ccc5ncccc5c4)c3n2)s1", "assayedSystem": "Recombinant human Met (c-Met) (Homo sapiens, UniProt P08581)", "pIC50": "6.00 to 7.00"}
{"compound": "CNC(=O)c1ccc(-c2ccc3nnn(Cc4ccc5ncccc5c4)c3n2)cn1", "assayedSystem": "Recombinant human Met (c-Met) (Homo sapiens, UniProt P08581)", "pIC50": "7.00 to 9.00"}

The compound identified as CC1N=CC(c2cnc3nnn(Cc4cc5cccnc5s4)c3n2)=N1 (stereo not drawn) registered its pIC50 at 6.00 to 7.00

The compound identified as FC(F)(F)Cn1cc(-c2ccc3nnn(Cc4ccc5ncccc5n4)c3n2)cn1 registered its pIC50 at 6.00 to 7.00

The compound identified as OCCn1cc(-c2ccc3nnn(Cc4n[nH]c5ncccc45)c3n2)cn1 registered its pIC50 at 6.00 to 7.00

The compound identified as COCCOc1ccc(-c2ccc3nnn(Cc4ccc5ncccc5c4)c3n2)cc1 registered its pIC50 at 7.00 to 9.00

The compound identified as Cc1cc(Nc2cnc3nnn(Cc4ccc5ncccc5c4)c3n2)cc(C)n1 registered its pIC50 at 7.00 to 9.00

The compound identified as FC(F)(F)Cn1cc(-c2cnc3nnn(Cc4cc5[nH]ncc5s4)c3n2)cn1 registered its pIC50 at 7.00 to 9.00

The compound identified as c1nn(C2CCNCC2)cc1-c1cnc2nnn(Cc3cc4[nH]ncc4s3)c2n1 registered its pIC50 at 6.00 to 7.00

The compound identified as Cc1cnc(Nc2cnc3nnn(Cc4ccc5ncccc5c4)c3n2)s1 registered its pIC50 at 7.00 to 9.00
